B1: WW domain-containing transcription regulator protein 1, residues 116 to 162; numbered along this chain, Q9GZV5 (parent)
chain: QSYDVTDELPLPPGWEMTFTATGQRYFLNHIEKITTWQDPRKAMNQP

variants of: B1; test: abundance fitness (aPCA) (normalised: wild type 0, dead -1); higher = more abundant; growth selection in yeast, the domain comes from the species named; conditions: Homo sapiens
Here the recorded abundance fitness is given for each entry.
Lab note: jot down the number only; don't add units.

mutation: T36G
abundance fitness: -0.775
--
mutation: Y3V
abundance fitness: -0.472
--
mutation: V5M
abundance fitness: -0.026
--
mutation: L9K
abundance fitness: -0.064
--
mutation: A21Q
abundance fitness: -0.272

Consider the additional variant presented here.
Consider T6F . Its measured abundance fitness is -0.074
